Target: S. pneumoniae Topoisomerase IV ATPase (ParE) (Streptococcus pneumoniae serotype 4, UniProt Q59961)
Sequence (Q59961 whole entry): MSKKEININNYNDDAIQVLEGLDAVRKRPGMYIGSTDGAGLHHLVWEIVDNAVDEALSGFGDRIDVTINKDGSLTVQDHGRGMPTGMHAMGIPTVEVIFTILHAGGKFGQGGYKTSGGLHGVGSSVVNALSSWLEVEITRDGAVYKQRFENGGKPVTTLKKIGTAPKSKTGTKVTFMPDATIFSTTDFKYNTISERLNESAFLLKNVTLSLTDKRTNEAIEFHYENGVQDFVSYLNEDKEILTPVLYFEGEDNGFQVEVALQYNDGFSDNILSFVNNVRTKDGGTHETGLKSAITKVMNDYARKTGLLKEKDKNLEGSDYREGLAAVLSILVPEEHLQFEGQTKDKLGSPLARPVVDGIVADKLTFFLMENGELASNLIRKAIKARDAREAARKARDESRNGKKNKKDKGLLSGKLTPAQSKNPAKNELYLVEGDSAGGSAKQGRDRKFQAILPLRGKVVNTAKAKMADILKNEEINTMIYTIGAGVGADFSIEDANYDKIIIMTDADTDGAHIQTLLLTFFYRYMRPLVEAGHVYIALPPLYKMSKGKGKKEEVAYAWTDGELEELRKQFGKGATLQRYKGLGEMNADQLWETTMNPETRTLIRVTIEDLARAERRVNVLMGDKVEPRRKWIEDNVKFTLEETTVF
Test: S. pneumoniae Topoisomerase IV ATPase inhibition
Type: biochemical
Conditions: values marked * are an average of two or more data points, read-out: % Inh (13 μM) of S. pneumoniae Topoisomerase IV ATPase
Below: a set of entries, each annotated with reported inhibition at 13 µM.
Just the number please, in %, no unit attached.

# input Please give the measured inhibition at 13 µM for this compound: `Cc1cc(C(F)(F)F)nn1-c1nc(Nc2ccc(F)c(Cl)c2)ncc1-c1cc(C(=O)O)c(=O)n(CCS(C)(=O)=O)c1`
# output 100

# input And the next one, `COc1cc(Nc2ncc(-c3cncc(C(=O)O)c3)c(-n3nc(C(F)(F)F)cc3C)n2)cc(OC)c1` ?
# output 100

# input And the next one, `O=C(O)c1cncc(-c2cnc(Nc3ccc4c(c3)CCC4)nc2-n2ccc(C(F)(F)F)n2)c1` ?
# output 85

# input And the next one, `COc1cc(C)cc(Nc2ncc(-c3cc(C(=O)NS(C)(=O)=O)c(=O)n(C)c3)c(-n3nc(C(F)(F)F)cc3C)n2)c1` ?
# output 100

###

Molecular target: S. pneumoniae Topoisomerase IV ATPase (ParE) (Streptococcus pneumoniae serotype 4, UniProt Q59961)
Assay: S. pneumoniae Topoisomerase IV ATPase inhibition
Format: biochemical
Conditions: values marked * are an average of two or more data points, read-out: % Inh (13 μM) of S. pneumoniae Topoisomerase IV ATPase
readout-name: inhibition at 13 µM (%)
Just the number please, in %, no unit attached.

For orientation, consider the following solved cases.
O=C(O)c1cccc(-c2cnc(Nc3ccc(F)c(Cl)c3)nc2-n2ccc(C(F)(F)F)n2)n1    100
CONC(=O)c1cc(-c2cnc(Nc3cc(OC)cc(OC)c3)nc2-n2nc(C(F)(F)F)cc2C)cnc1OC    100
CCn1cc(-c2cnc(Nc3cc(C)cc(OC)c3)nc2-n2ccc(C(F)(F)F)n2)cc(C(=O)O)c1=O    100
Cc1cc(C(F)(F)F)nn1-c1nc(Nc2ccc(F)c(Cl)c2)ncc1-c1cncc(C(=O)NCCN2CCN(C)CC2)c1    85
CN(C)CCCNc1nc(Nc2ccc(F)c(Cl)c2)ncc1-c1cn[nH]c1    74.6

# input Please give the measured inhibition at 13 µM for this compound: `COc1cc(Nc2ncc(-c3cnc(SC)c(C(=O)O)c3)c(-n3nc(C(F)(F)F)cc3C)n2)cc(OC)c1`
# output 100

# input And the next one, `O=C(O)/C=C/c1cccc(-c2cnc(Nc3ccc(F)c(Cl)c3)nc2-n2cc(-c3ccncc3)cn2)c1` ?
# output 101

# input And the next one, `COCCCNc1nc(Nc2ccc(F)c(Cl)c2)ncc1-c1nc(C)c(C(=O)O)s1` ?
# output 100

# input And the next one, `CCOC(=O)/C=C/c1cccc(-c2cnc(Nc3ccc(F)c(Cl)c3)nc2-n2cnc(Cl)c2Cl)c1` ?
# output 74.8

# input And the next one, `CONC(=O)c1cncc(-c2cnc(Nc3ccc(F)c(Cl)c3)nc2NCCc2ccncc2)c1` ?
# output 100

# input And the next one, `CCNC(=O)c1ccc(-c2cnc(Nc3ccc(F)c(Cl)c3)nc2NCCCN(C)C)cc1` ?
# output 57.9

###

Below: a set of entries, each annotated with reported inhibition at 13 µM.
Target: S. pneumoniae Topoisomerase IV ATPase (ParE) (Streptococcus pneumoniae serotype 4, UniProt Q59961)
Test: S. pneumoniae Topoisomerase IV ATPase inhibition
Assay type: biochemical
Settings: values marked * are an average of two or more data points, read-out: % Inh (13 μM) of S. pneumoniae Topoisomerase IV ATPase
Just the number please, in %, no unit attached.

For orientation, consider the following solved cases.
COc1cc(Nc2ncc(-c3cnc(OC)c(C(=O)NS(=O)(=O)CS(C)(=O)=O)c3)c(-n3nc(C(F)(F)F)cc3C)n2)cc(OC)c1    99
Cc1[nH]ncc1CCCNc1nc(Nc2ccc(F)c(Cl)c2)ncc1-c1cncc(C(=O)O)c1    88
NC(=O)c1cncc(-c2cnc(Nc3ccc(F)c(Cl)c3)nc2-n2cc(-c3ccccn3)cn2)c1    85
NC(=O)c1cncc(-c2cnc(Nc3ccc(F)c(Cl)c3)nc2-n2cc(-c3ccncn3)cn2)c1    68
CC(=O)NC1CCN(c2nc(Nc3ccc(F)c(Cl)c3)ncc2-c2cncnc2)CC1    77
COc1cc(Cl)cc(Nc2ncc(-c3cnc(OC)c(C(=O)O)c3)c(-n3nc(C(F)(F)F)cc3C)n2)c1    100
COc1cc(Nc2ncc(-c3ccc(C(=O)O)s3)c(NCCCN(C)C)n2)cc(C(F)(F)F)c1    79.5
CN(C)CCCNc1nc(Nc2ccc(F)c(Cl)c2)ncc1-c1cn([Si](C)(C)C(C)(C)C)c2ccccc12    55.3
COc1cc(Nc2ncc(-c3cccc(/C=C/C(=O)O)c3)c(NCCc3ccncc3)n2)cc(C(F)(F)F)c1    86.6
CCCS(=O)(=O)NC(=O)c1cc(-c2cnc(Nc3cc(OC)cc(OC)c3)nc2-n2ccc(C(F)(F)F)n2)cnc1OC    100

# input Please give the measured inhibition at 13 µM for this molecule: `Cc1cc(C(F)(F)F)nn1-c1nc(Nc2ccc3c(c2)OCO3)ncc1-c1cccc(/C=C/C(=O)O)c1`
# output 96

###

Biological target: S. pneumoniae Topoisomerase IV ATPase (ParE) (Streptococcus pneumoniae serotype 4, UniProt Q59961)
Test: S. pneumoniae Topoisomerase IV ATPase inhibition
Assay type: biochemical
Details: values marked * are an average of two or more data points, read-out: % Inh (13 μM) of S. pneumoniae Topoisomerase IV ATPase
readout-name: inhibition at 13 µM (%)
Just the number please, in %, no unit attached.

For orientation, consider the following solved cases.
CCOC(=O)c1cncc(-c2cnc(Nc3ccc(F)c(Cl)c3)nc2NCCc2ccncc2)c1    79.5
O=C(O)c1cncc(-c2cnc(Nc3ccc(F)c(Cl)c3)nc2-n2cc(Cl)cn2)c1    69.4
COc1cc(Nc2ncc(-c3cnc(OC)c(C(=O)O)c3)c(-n3ccc(C(F)(F)F)n3)n2)cc(OC)c1    100
CCN1CCC(CNc2nc(Nc3ccc(F)c(Cl)c3)ncc2-c2cnc(OC)nc2)CC1    80
O=C(O)c1cncc(-c2cnc(Nc3ccc(F)c(Cl)c3)nc2N[C@H]2CC[C@H](O)CC2)c1    72.8
COc1cc(Nc2ncc(-c3cncc(C(=O)O)c3)c(N3CCOCC3)n2)ccc1F    74

Proceeding to the next compound to report its inhibition at 13 µM.
# input Please give the measured inhibition at 13 µM for this compound: `O=C(O)/C=C/c1cccc(-c2cnc(Nc3ccc4c(c3)OCO4)nc2-n2ccc(C(F)(F)F)n2)c1`
# output 100

###

Molecular target: S. pneumoniae Topoisomerase IV ATPase (ParE) (Streptococcus pneumoniae serotype 4, UniProt Q59961)
Test: S. pneumoniae Topoisomerase IV ATPase inhibition
Assay type: biochemical
Settings: values marked * are an average of two or more data points, read-out: % Inh (13 μM) of S. pneumoniae Topoisomerase IV ATPase
Label rule, in plain words: inhibition at 13 µM of 80% and up is Satisfied, under 80% is Not satisfied.

CCOC(=O)/C=C/c1cccc(-c2cnc(Nc3ccc(F)c(Cl)c3)nc2N2CCOC(CO)C2)c1 (centres unmarked)    Not satisfied

Next up:
# input hey, is inhibition at 13 µM for this one >= 80%? Cc1cc(C(F)(F)F)nn1-c1nc(Nc2ccc(F)c(Cl)c2)ncc1-c1cnc(OC(C)c2ccncc2)c(C(=O)O)c1 (centres unmarked)
# output Satisfied

###

Target: S. pneumoniae Topoisomerase IV ATPase (ParE) (Streptococcus pneumoniae serotype 4, UniProt Q59961)
Assay: S. pneumoniae Topoisomerase IV ATPase inhibition
Assay type: biochemical
Details: values marked * are an average of two or more data points, read-out: % Inh (13 μM) of S. pneumoniae Topoisomerase IV ATPase
Below: a set of entries, each annotated with reported inhibition at 13 µM.
The reply should consist of the numeric value with the unit placed after it.

For orientation, consider the following solved cases.
O=C(O)CS(=O)(=O)c1cccc(-c2cnc(Nc3ccc(F)c(Cl)c3)nc2-n2ccc(C(F)(F)F)n2)c1    100%
CC1CN(c2nc(Nc3ccc(F)c(Cl)c3)ncc2-c2cncc(C(=O)O)c2)CC(C)O1 (stereo not shown)    81.1%
CN(C)CCCNc1nc(Nc2cc(Cl)cc(Cl)c2)ncc1-c1cccc(/C=C/C(=O)O)c1    83.3%

Proceeding to the next molecule to report its inhibition at 13 µM.
# input Please give the measured inhibition at 13 µM for this molecule: `Cc1cc(-c2nccs2)nn1-c1nc(Nc2ccc(F)c(Cl)c2)ncc1-c1cccc(/C=C/C(=O)O)c1`
# output 100%

###

Below: a set of entries, each annotated with reported inhibition at 13 µM.
Target: S. pneumoniae Topoisomerase IV ATPase (ParE) (Streptococcus pneumoniae serotype 4, UniProt Q59961)
Assay: S. pneumoniae Topoisomerase IV ATPase inhibition
Format: biochemical
Conditions: values marked * are an average of two or more data points, read-out: % Inh (13 μM) of S. pneumoniae Topoisomerase IV ATPase
The reply should consist of the numeric value with the unit placed after it.

For orientation, consider the following solved cases.
CS(=O)(=O)c1cncc(-c2cnc(Nc3ccc(F)c(Cl)c3)nc2-n2ccc(C(F)(F)F)n2)c1    100%
O=C1CCCN1CCCNc1nc(Nc2ccc(F)c(Cl)c2)ncc1-c1cncnc1    84.3%
CONC(=O)c1cc(-c2cnc(Nc3ccc(F)c(Cl)c3)nc2-n2nc(C(F)(F)F)cc2C)cnc1OC    96%
CCOC(=O)c1cncc(-c2cnc(Nc3ccc(F)c(Cl)c3)nc2NCCc2ccccn2)c1    8.69%
COCCn1cc(-c2cnc(Nc3ccc(F)c(Cl)c3)nc2-n2ccc(C(F)(F)F)n2)cc(C(=O)O)c1=O    100%
CCS(=O)(=O)NC(=O)c1cc(-c2cnc(Nc3ccc(F)c(Cl)c3)nc2-n2ccc(C(F)(F)F)n2)cnc1OC    94%
CCOC(=O)c1cncc(-c2cnc(Nc3ccc(F)c(Cl)c3)nc2N[C@@H]2CCOC2)c1    79.7%
O=C(O)/C=C/c1cccc(-c2cnc(Nc3ccc(F)c(Cl)c3)nc2-n2nnc3ccccc32)c1    102%
CNC(=O)CNC(=O)c1cncc(-c2cnc(Nc3ccc(F)c(Cl)c3)nc2-n2nc(C(F)(F)F)cc2C)c1    72%
COc1cc(Nc2ncc(-c3cnc(OC)c(C(=O)O)c3)c(-n3ccc(C4CC4)n3)n2)cc(OC)c1    100%

# input Please give the measured inhibition at 13 µM for this compound: Fc1ccc(Nc2ncc(-c3cncnc3)c(NCC3CCCO3)n2)cc1Cl (centres unmarked)
# output 88.8%

# input And the next one, `Fc1ccc(Nc2ncc(-c3cncnc3)c(NCc3ccccn3)n2)cc1Cl` ?
# output 62.3%

# input And the next one, `COc1ncc(-c2cnc(Nc3cc(C)cc(Cl)c3)nc2-n2nc(C(F)(F)F)cc2C)cc1C(=O)NS(C)(=O)=O` ?
# output 100%

# input And the next one, `CCOC(=O)c1cncc(-c2cnc(Nc3ccc(F)c(Cl)c3)nc2NC(C)C)c1` ?
# output 82%
